- tested.on: Retinoic acid receptor gamma (Homo sapiens, UniProt P13631)
- Sequence (P13631 whole entry, the tested form may be a part): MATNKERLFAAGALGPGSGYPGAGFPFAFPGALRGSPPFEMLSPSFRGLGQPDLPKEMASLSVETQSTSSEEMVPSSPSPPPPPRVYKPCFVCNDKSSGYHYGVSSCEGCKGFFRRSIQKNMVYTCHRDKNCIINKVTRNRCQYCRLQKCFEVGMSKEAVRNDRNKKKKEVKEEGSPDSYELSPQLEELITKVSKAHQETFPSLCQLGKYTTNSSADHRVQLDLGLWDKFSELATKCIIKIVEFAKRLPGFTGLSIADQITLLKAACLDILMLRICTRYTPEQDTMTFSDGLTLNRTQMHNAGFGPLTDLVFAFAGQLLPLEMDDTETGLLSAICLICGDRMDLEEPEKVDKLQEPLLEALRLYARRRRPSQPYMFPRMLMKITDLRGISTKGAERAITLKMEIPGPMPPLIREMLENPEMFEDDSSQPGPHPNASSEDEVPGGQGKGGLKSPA
- experimental.details: Inverse agonist activity at RARgamma (unknown origin) expressed in human HeLa-derived HG5LN cells transfected with the GAL4 DNA-binding domain fused to the RARgamma ligand-binding domain assessed as inhibition of transcriptional activity after 18 hrs by luminescence-based luciferase reporter gene assay
pIC50: −log10 of the molar value.
measured.parameter: pIC50

Please give measured pIC50 of the following entry: CCc1ccc(N(CC(C)C)S(=O)(=O)c2ccc(OCC3CCOCC3)c([S@@](C)(=N)=O)c2)cc1
< 5.00

###

- experimental.details: Intrinsic clearance in human hepatocytes assessed per million cells at 1 uM incubated for 5 to 90 mins by LC-MS/MS method
- Format: ADME, cell-based, Hepatocyte
- measurement.setup: read-out: CLH
measured.parameter: hepatocyte CLint at 1 µM (µL/min/1e6 cells)
Numbers only here, please. The scale is µL/min/1e6 cells.

{"item.smiles": "CCc1ccc(N(CC(C)C)S(=O)(=O)c2ccc(OCC3CCOCC3)c([S@@](C)(=N)=O)c2)cc1", "unit.label": "µL/min/1e6 cells", "observed": 180}

Please turn your attention to the following entry.
Answer with reported hepatocyte CLint at 1 µM of CCc1ccc(N(CC(C)C)S(=O)(=O)c2ccc(OCC3CCOCC3)c([S@](C)(=N)=O)c2)cc1
160
